# System: [3H]-ADMA transport across the blood-brain and blood-CSF barriers
# protocol-notes: cross-inhibition, in situ perfusion: [^3H]-ADMA with 100 μM unlabelled L-arginine
# Assay type: in vivo, mouse
# test-settings: male, Balb/c, mouse, occipital cortex, other: in situ brain perfusion, with 100 µM unlabelled L-arginine, Difference (ADMA minus Sucrose), occipital cortex, + 100uM Arg, 10 mins, Balb/c ♂, 5ml/min; mean
Structures can show the parent of a compound that is named as a salt.
measurement-kind: Kp at 10 min, 62.5 nM
Numbers only.

Please look at this compound and report its Kp at 10 min, 62.5 nM: CN(C)C(N)=NCCC[C@H](N)C(=O)O [ADMA, N^G,N^G-dimethylarginine dihydrochloride]
0.048

---

# protocol-notes: cross-inhibition, in situ perfusion: [^3H]-arginine with 0.5–500 μM unlabelled ADMA
# Format: in vivo, mouse
# test-settings: male, Balb/c, mouse, pituitary gland, other: in situ brain perfusion, with unlabelled ADMA 3 µM, Arginine / Sucrose uptake, pituitary gland, mean, [3H] Arginine + [14C] Sucrose + 3 uM ADMA, 10 mins, Balb/c ♂, 5ml/min; mean
measurement-kind: Kp at 10 min

Given OC[C@H]1O[C@@](CO)(O[C@H]2O[C@H](CO)[C@@H](O)[C@H](O)[C@H]2O)[C@@H](O)[C@@H]1O [[^14C]-sucrose, reference compound] , respond with its Kp at 10 min.
0.146

---

# Tested on: [3H]-ADMA transport across the blood-brain and blood-CSF barriers
# protocol-notes: cross-inhibition, in situ perfusion: [^3H]-ADMA with 100 μM unlabelled L-arginine
# Type: in vivo, mouse
# test-settings: male, Balb/c, mouse, pineal gland, other: in situ brain perfusion, with unlabelled L-arginine 100 µM, [3H] ADMA + [14C] Sucrose + 100uM Arg, 10 mins, Balb/c ♂, 5ml/min; mean; read-out: uptake into pineal gland
Counter-ions that a name gives are not always drawn.
measurement-kind: Kp at 10 min, 62.5 nM

Note down Kp at 10 min, 62.5 nM recorded for CN(C)C(N)=NCCC[C@H](N)C(=O)O [ADMA, N^G,N^G-dimethylarginine dihydrochloride]
0.915

---

# protocol-notes: capillary depletion analysis after in situ brain perfusion
# Type: in vivo, mouse
# test-settings: male, BALB/c, mouse, whole-brain homogenate (capillary depletion), other: in situ brain perfusion, [3H] ADMA + [14C] Sucrose, 30 mins, Balb/c ♂, 5ml/min; mean; read-out: uptake, homogenate
Counter-ions that a name gives are not always drawn.
What Kp at 30 min, 62.5 nM was measured for each of the following?

INSERT INTO measurements (molecule, experimental_result) VALUES
  ('CN(C)C(N)=NCCC[C@H](N)C(=O)O [ADMA, N^G,N^G-dimethylarginine dihydrochloride]', 0.156);

Now turn to the next molecule.
Name the recorded Kp at 30 min, 62.5 nM of the item OC[C@H]1O[C@@](CO)(O[C@H]2O[C@H](CO)[C@@H](O)[C@H](O)[C@H]2O)[C@@H](O)[C@@H]1O [[^14C]-sucrose, reference compound] in your answer.
0.0336

---

For each entry below, report its Kp at 10 min, 62.5 nM value.
# Tested on: [3H]-ADMA transport across the blood-brain and blood-CSF barriers
# protocol-notes: cross-inhibition, in situ perfusion: [^3H]-ADMA with 100 μM unlabelled L-arginine
# Assay type: in vivo, mouse
# test-settings: male, Balb/c, mouse, hypothalamus, other: in situ brain perfusion, with 100 µM unlabelled L-arginine, [3H] ADMA + [14C] Sucrose + 100uM Arg, 10 mins, Balb/c ♂, 5ml/min; mean; read-out: uptake into hypothalamus
Structures can show the parent of a compound that is named as a salt.
One number for each entry.

Items follow; give Kp at 10 min, 62.5 nM for each.
1. CN(C)C(N)=NCCC[C@H](N)C(=O)O [ADMA, N^G,N^G-dimethylarginine dihydrochloride]
2. OC[C@H]1O[C@@](CO)(O[C@H]2O[C@H](CO)[C@@H](O)[C@H](O)[C@H]2O)[C@@H](O)[C@@H]1O [[^14C]-sucrose, reference compound]

0.11
0.0327
